assay: Cmax in beagle dog at 5 mg/kg, po measured by LC-MS/MS analysis; type: ADME, organism-based, Canis lupus familiaris; design: dose 5 mg/kg, route po; conditions: in vivo
ASSAY_READOUT: Cmax (ng/mL)
Answers are plain numbers, in ng/mL.

What Cmax value was documented for this molecule, CC(C)(c1ccc(OCC2CCN(CC3CCN(c4ccc5c(c4)C(=O)N(C4CCC(=O)NC4=O)C5=O)CC3)CC2)cc1)c1ccc(OC[C@H](O)CCl)cc1 (stereo partly specified) ? 97.3

###

test: Metabolic stability in human liver microsomes assessed as half-life at 2 uM preincubated for 10 mins in the presence of NADPH followed by compound addition and measured after 60 mins by LC-MS/MS analysis; type: ADME, Microsome
ASSAY_READOUT: half-life at 2 µM (h)
Give bare numbers, in h.

What half-life at 2 µM value was documented for this molecule, CC(C)(c1ccc(OCC2CCN(CC3CCN(c4ccc5c(c4)C(=O)N(C4CCC(=O)NC4=O)C5=O)CC3)CC2)cc1)c1ccc(OC[C@H](O)CCl)cc1 (stereo partly specified) ? 3.12

Ref: ChEMBL document CHEMBL5325501
